ASSAY NOTES: folding stability dG unfold (combined trypsin and chymotrypsin); higher = more stable
PROPERTY NAME: folding stability dG unfold (kJ/mol)
Express your answer in kJ/mol, writing the number without its unit.

1. SAGGSAMITVDPGEKTVTVEIDLPVYKSYTYPGGETKAYPLELPEEEAKKVADEIAEAFKKKLEGESAGGSA [r15_365_JUSTAS]	0.562
2. SAGGISVEIYPPNGKKVELEGDTIPELMDKFPPGGNYVIKIEQPHVNPGNGKKQPMEMEFRVPPDDFSAGGS [r16_806_TrROS]	-2.91

Next:
Problem: Fill in: folding stability dG unfold of SPTVTETTLIASEEDPSSGVKTELTETTTIVKVGGTTTEVTTTTTTLTPEEDGKGTSTVTPSTTTTPIPASA [r9_375_JUSTAS] is ___
Solution: 5.39
